These data points were gathered from patent EP4692094A1.

- Protocol description: In-vivo pharmacokinetic study in beagle dogs
- Set-up: species or system male beagle dogs
- Experimental conditions: dog, plasma, po, intragastric administration, 1 mg/kg, read-out: AUC0-48h
Metric: AUC(0-t) at 48 h (µg·h/mL)

{"Structure as smiles": "COc1cc2c(cc1S(=O)(=O)Nc1noc3cc(Cn4cccn4)nc(OC)c13)CCCO2", "Number": 225}

###

- Test system: human breast cancer cell line ZR-75-1
- Protocol description: Assay for cell growth inhibitory activity (3D hydrogel culture, CCK-8)
- Format: cell-based
- Experimental conditions: ZR-75-1, 100 nM, 96 h, read-out: Cell survival rate at example drug concentration 100 nM
Metric: viability at 0.1 µM (%)

{"Structure as smiles": "COc1nc(Cn2cccn2)cc2onc(NS(=O)(=O)c3cccc4c3ccn4C)c12", "Target entity": "human breast cancer cell line ZR-75-1", "Number": 38}
{"Structure as smiles": "COc1nc(Cn2cccn2)cc2onc(NS(=O)(=O)c3cccc4c3OCC4)c12", "Target entity": "human breast cancer cell line ZR-75-1", "Number": 40}
{"Structure as smiles": "COc1ccc2c(c1S(=O)(=O)Nc1noc3cc(Cn4cccn4)nc(OC)c13)CCCC2", "Target entity": "human breast cancer cell line ZR-75-1", "Number": 40}
{"Structure as smiles": "COc1nc(Cn2cccn2)cc2onc(NS(=O)(=O)c3cccc4ccoc34)c12", "Target entity": "human breast cancer cell line ZR-75-1", "Number": 54}
{"Structure as smiles": "COc1ccc2ccoc2c1S(=O)(=O)Nc1noc2cc(Cn3cccn3)nc(OC)c12", "Target entity": "human breast cancer cell line ZR-75-1", "Number": 33}
{"Structure as smiles": "COc1nc(Cn2cccn2)cc2onc(NS(=O)(=O)c3cccc4c3OCCO4)c12", "Target entity": "human breast cancer cell line ZR-75-1", "Number": 37}
{"Structure as smiles": "COc1ccc2c(c1S(=O)(=O)Nc1noc3cc(Cn4cccn4)nc(OC)c13)OCC2", "Target entity": "human breast cancer cell line ZR-75-1", "Number": 38}
{"Structure as smiles": "COc1cc2c(cc1S(=O)(=O)Nc1noc3cc(Cn4cccn4)nc(OC)c13)CCCC2", "Target entity": "human breast cancer cell line ZR-75-1", "Number": 43}
